Please go through the items and note down their pIC50.
- System: human cervical tumor cell line HeLa (ATCC CCL-2)
- Assay: SAC-Formation - Nocodazole-Induced Assay
- Format: cell-based
- Experimental context: Homo sapiens, HeLa, 24 h, HeLa cells, nocodazole 0.1 μg/ml together with test compound, decrease of mitotic cells (phospho-histone H3 Ser10)
- Source text: The spindle assembly checkpoint assures the proper segregation of chromosomes during mitosis. Upon entry into mitosis, chromosomes begin to condensate which is accompanied by the phosphorylation of histone H3 on serine 10. Dephosphorylation of histone H3 on serine 10 begins in anaphase and ends at early telophase. […] The mitotic breakthrough can be detected by the decrease of cells with phosphorylation of histone H3 on serine 10. […]
One number for each entry, as −log10 of the molar value.

Compound: Cc1nsc(Nc2cnc3ccccc3n2)c1C(=O)Nc1cccc(NS(=O)(=O)C2CCN(CCC(F)(F)F)CC2)c1
pIC50: 5.48

The following compounds each have a reported value; give each one's pIC50.
1. Cc1nsc(Nc2cnc(C(F)(F)F)cn2)c1C(=O)Nc1ccc(OCC2CCN(CCF)CC2)nc1
2. Cc1nsc(Nc2cnc(C(F)(F)F)cn2)c1C(=O)Nc1ccc(F)c(OC2CCN(CC(F)F)CC2)c1
3. Cc1nsc(Nc2cnc(C(F)(F)F)cn2)c1C(=O)Nc1ccc(F)c(OCC2CCN(C(CF)CF)CC2)c1

6.54
6.72
7.09

Respectfully, I request pIC50 for each entry included below.
1. COCCN1CCN(C(=O)c2cccc(NC(=O)c3c(C)nsc3Nc3cnc4ccccc4n3)c2)CC1
2. CCN1CCC(Oc2ccc(NC(=O)c3c(C)nsc3Nc3cnc(C(F)(F)F)cn3)cn2)C(F)(F)C1 (stereo not shown)
3. Cc1nsc(Nc2cnc3ccccc3n2)c1C(=O)Nc1ccc(C(=O)N2CCN(CC(F)F)CC2)cc1

1: 7.38; 2: 7.48; 3: 5.77

###

- Target under test: CDK2/CycE (Homo sapiens, UniProt P24941)
- Construct: GST
- Assay: CDK2/CycE kinase assay (TR-FRET)
- Experimental context: avg, read-out: CDK2 avg (IC50 [mol/l])
pIC50: −log10 of the molar value.
Assay endpoint: pIC50

// below: answered compounds
Compound: Cc1nsc(Nc2cc(C#N)ccn2)c1C(=O)Nc1ccc(OC2CCCN(C(=O)OC(C)(C)C)C2)nc1 (centres unmarked) [Example 34]
Assay result: ≤ 4.70
--
Compound: Cc1nsc(Nc2cnc3ccccc3n2)c1C(=O)Nc1ccc(OC2CCCN(C(=O)OC(C)(C)C)C2)nc1 (centres unmarked) [Example 31]
Assay result: ≤ 4.70
--
Compound: Cc1nsc(Nc2cc(C#N)ccn2)c1C(=O)Nc1ccc(OCCCN)nc1 [Example 44]
Assay result: ≤ 4.70
--
Compound: Cc1nsc(Nc2cc(C#N)ccn2)c1C(=O)Nc1ccc(OC2CCN(CC(F)F)CC2)nc1 [Example 263]
Assay result: < 4.70
--
Compound: Cc1nsc(Nc2cnc3ccccc3n2)c1C(=O)Nc1ccc(NC2CCN(C(=O)OC(C)(C)C)CC2)nc1 [Example 234]
Assay result: < 4.70

I need pIC50 for every entry listed below, if you could help.
1. Cc1nsc(Nc2ccc(C#N)cn2)c1C(=O)Nc1ccc(C(=O)OC(C)(C)C)cc1 [Example 98]
2. Cc1nsc(Nc2cnc(C(F)(F)F)cn2)c1C(=O)Nc1ccc(C(=O)NC2CCN(CC(F)F)CC2)cc1 [Example 259]
3. Cc1nsc(Nc2cnc3ccccc3n2)c1C(=O)Nc1cccc(C(=O)NC(C)C)c1 [Example 253]

1. ≤ 4.70
2. < 4.70
3. < 4.70

###

- System: HeLa-MaTu-ADR
- Assay: Proliferation assay (crystal violet), HeLa-MaTu-ADR
- Assay type: cell-based
- Experimental context: 96 h; HeLa-MaTu-ADR cells; 4 days incubation; crystal violet staining; read-out: IC50 inhibition of proliferation, HeLa-MaTu-ADR
Consider the following compounds; for each one, report its IC50.
Numbers only, in nM.

# example entries with known answers
Compound: Cc1nsc(Nc2cnc3ccccc3n2)c1C(=O)Nc1ccc(OC2CCCN(C(=O)OC(C)(C)C)C2)nc1 (stereo not shown)
IC50, nM: 880

Compound: Cc1nsc(Nc2cncc(C(F)(F)F)n2)c1C(=O)Nc1ccc(OCC2CCN(C(=O)OC(C)(C)C)C2)nc1 (stereo not shown)
IC50, nM: 950

Compound: Cc1nsc(Nc2cnc3ccccc3n2)c1C(=O)Nc1ccc(Oc2cccc(C(F)(F)F)c2)nc1
IC50, nM: 660

What IC50 value was documented for this compound, Cc1nsc(Nc2cnc3ccccc3n2)c1C(=O)Nc1ccc(OC2CCN(C(=O)OC(C)(C)C)CC2)nc1 ? 380

###

What IC50 was measured for each of the following?
- Test system: HeLa
- Assay: Proliferation assay (crystal violet), HeLa
- Assay type: cell-based
- Experimental context: Homo sapiens, HeLa, 96 h, HeLa cells; 4 days incubation; crystal violet staining; read-out: IC50 inhibition of proliferation, HeLa
Give bare numbers, in nM.

Each compound below has a recorded value; state its IC50.
1. Cc1nsc(Nc2cc(C#N)ccn2)c1C(=O)Nc1ccc(OC2CCNCC2)nc1
2. Cc1nsc(Nc2cnc(C(F)(F)F)cn2)c1C(=O)Nc1ccc(C(=O)N2CCN(C)CC2)cc1
3. Cc1nsc(Nc2cnc(C(F)(F)F)cn2)c1C(=O)Nc1ccc(OC2CCN(CCF)CC2)c(F)c1
4. Cc1nsc(Nc2cnc3ccccc3n2)c1C(=O)Nc1cccc(C(=O)NCCN2CCCC2)c1
5. Cc1nsc(Nc2cnc(C(F)(F)F)cn2)c1C(=O)Nc1ccc(O[C@H]2CCCN(CCC(F)(F)F)C2)nc1
6. Cc1nsc(Nc2cnc(C(F)(F)F)cn2)c1C(=O)Nc1ccc(OCCO)nc1
7. Cc1nsc(Nc2cnc(C(F)(F)F)cn2)c1C(=O)Nc1ccc(F)c(OCC2CCN(CC(F)(F)F)C2)c1 (centres unmarked)
8. Cc1nsc(Nc2cnc(C(F)(F)F)cn2)c1C(=O)Nc1ccc(OCC2CCCN(CCC(F)(F)F)C2)nc1 (centres unmarked)

[10000, 9400, 330, 10000, 320, 3200, 220, 360]

###

pIC50: −log10 of the molar value.
Recorded pIC50 values (catalytic domain of human Bub1 (amino acids 704-1085) (Homo sapiens)) are given below.

Answered examples (4):
Chemical smiles: Cc1nsc(Nc2cc(C#N)ccn2)c1C(=O)Nc1ccc(OCCCN)nc1
pIC50: ≤ 4.70
//
Chemical smiles: CCNS(=O)(=O)c1ccc(NC(=O)c2c(C)nsc2Nc2cnc3ccccc3n2)cc1
pIC50: ≤ 4.70
//
Chemical smiles: Cc1nsc(Nc2cncc(C(F)(F)F)n2)c1C(=O)Nc1ccc(F)c(OC2CCN(CC(F)(F)F)CC2)c1
pIC50: < 4.70
//
Chemical smiles: Cc1nsc(Nc2cnc(C(F)(F)F)cn2)c1C(=O)Nc1ccc(F)c(OC[C@H]2CCN(CC(F)(F)F)C2)c1
pIC50: < 4.70

Please report pIC50 for every entry that follows.
1. Cc1nsc(Nc2cc(C#N)ccn2)c1C(=O)Nc1ccc(OCCC(=O)OC(C)(C)C)nc1
2. Cc1nsc(Nc2ccc(C#N)cn2)c1C(=O)Nc1ccc(Oc2cccc(C(F)(F)F)c2)nc1

< 4.70
≤ 4.70

For each listed entry, give its pIC50.
1. Cc1nsc(Nc2cnc3ccccc3n2)c1C(=O)Nc1ccc(C(N)=O)c(F)c1
2. Cc1nsc(Nc2cc(C#N)ccn2)c1C(=O)Nc1ccc(OC2CCN(C(=O)OC(C)(C)C)CC2)nc1

["< 4.70", "≤ 4.70"]

###

- Test system: HeLa
- Assay: Proliferation assay (crystal violet), HeLa
- Assay type: cell-based
- Experimental context: Homo sapiens, HeLa, 96 h, HeLa cells; 4 days incubation; crystal violet staining; read-out: IC50 inhibition of proliferation, HeLa
Would you kindly list pIC50 for each of these molecules?
One number for each entry, as −log10 of the molar value.

Molecule: Cc1nsc(Nc2cnc3ccccc3n2)c1C(=O)Nc1ccc(Oc2cccc(C(F)(F)F)c2)nc1 [Example 117]
Assay endpoint: pIC50
Assay result: 6.06

Molecule: Cc1nsc(Nc2cnc(C(F)(F)F)cn2)c1C(=O)Nc1ccc(F)c(OC2CCN(CC(F)(F)F)CC2)c1 [Example 264]
Assay endpoint: pIC50
Assay result: 6.89

Molecule: Cc1nsc(Nc2cnc3ccccc3n2)c1C(=O)Nc1cccc(C(=O)N[C@@H](CCC(N)=O)C(=O)O)c1 [Example 103]
Assay endpoint: pIC50
Assay result: 5.00

Molecule: Cc1nsc(Nc2cnc(C(F)(F)F)cn2)c1C(=O)Nc1ccc(OCC2CCCN(CCF)C2)nc1 (centres unmarked) [Example 325]
Assay endpoint: pIC50
Assay result: 6.21

Molecule: Cc1nsc(Nc2cnc3ccccc3n2)c1C(=O)Nc1cccc(C(=O)N(C)CCO)c1 [Example 59]
Assay endpoint: pIC50
Assay result: 5.00

Report pIC50 for every entry below.
1. Cc1nsc(Nc2cnc(C(F)(F)F)cn2)c1C(=O)Nc1ccc(OCC2CCCN(C(=O)OC(C)(C)C)C2)nc1 (centres unmarked) [Example 228]
2. Cc1nsc(Nc2cnc3ccccc3n2)c1C(=O)Nc1cccc(C(=O)N2CCCN(C)CC2)c1 [Example 83]

1: 6.57; 2: 5.00
